Test system: Nucleic Acid
Assay: Binding affinity to human G4 telomeric quadruplex DNA assessed as change in melting temperature at 1 uM by FRET melting assay
Assay type: nucleic-acid assay
QUANTITY: ΔTm

Please review the entries below; each comes with its answer.
c1cc(-c2cnc(-c3ccc(OCCCN4CCCC4)cc3)o2)cc(-c2cnc(-c3ccc(OCCCN4CCCC4)cc3)o2)c1
< 2 °C
c1cc(-c2cnc(-c3ccc(CN4CCOCC4)cc3)o2)cc(-c2cnc(-c3ccc(CN4CCOCC4)cc3)o2)c1
< 2 °C

query: What value of ΔTm has been reported for the following compound? `c1cc(-c2cnc(-c3ccc(CN4CCCCCC4)cc3)o2)cc(-c2cnc(-c3ccc(CN4CCCCCC4)cc3)o2)c1`
result: 3 °C
